Tested on: NCI-H23 lung
Assay: NCI-60 one-dose screen, 48 h
Conditions: 10 µM unless noted
About 83,000 compounds went through this panel and 20% of them were active in at least one assay; those are over-represented in the sample as a whole. Activity calls are given as the source filed them. Rule for the calls: active = growth percent below 10; inactive = the rest.
# valid calls are T = active, F = inactive; nothing else

*Q* Which result was noted for this compound in the test: CC(=O)OC[C@]12CC[C@H]3[C@@H](C[C@H]4O[C@]45CC=CC(=O)[C@]35C)[C@]1(O)CC[C@@]2(O)[C@@](C)(O)C1CC(C)=C(C)C(=O)O1 (stereo partly specified)
*A* T

----------
Test system: SNB-19 CNS
Experiment: NCI-60 one-dose screen, 48 h
Conditions: 10 µM unless noted
The panel holds about 83,000 compounds, 20% with a hit somewhere; the sample as a whole holds those more often. Active and inactive are the calls of the source. How the source made its calls: active means growth percent below 10; inactive means the rest.
# valid calls are class 1 (active), class 0 (inactive); nothing else

| compound | cat |
| --- | --- |
| O=C1Nc2ccc3c(c2/C1=C\c1cc2c(cc1Br)OCO2)OCO3 | class 0 |

*Q* Which result was noted for this compound in the test: CC(=O)OC[C@]12CC[C@H]3[C@@H](C[C@H]4O[C@]45CC=CC(=O)[C@]35C)[C@]1(O)CC[C@@]2(O)[C@@](C)(O)C1CC(C)=C(C)C(=O)O1 (some centres undefined)
*A* class 1

*Q* What would you report for `N[C@@H]1CCN(C(=O)c2cc3cc(Cl)c(F)c(F)c3[nH]2)C1` ?
*A* class 0

*Q* What would you report for `COc1ccccc1CNCCCN1C(=O)c2ccc3c4c(ccc(c24)C1=O)C(=O)N(CCCNCCCCNCCCN)C3=O` ?
*A* class 1

*Q* What would you report for `NC(N)=N/N=C/c1ccc(-c2ccc(-c3cc(Cl)cc(Cl)c3)s2)cc1` ?
*A* class 0

*Q* What would you report for `CN(C)CCN1C(=O)c2ccc3c4c(ccc(c24)C1=O)C(=O)N(CCN=C=S)C3=O` ?
*A* class 1

*Q* What would you report for `CCCCCCN1CSC(=S)N(CCCCCC)C1` ?
*A* class 0

*Q* What would you report for `O=S(=O)(NCCCNc1nccc(-n2ccc3cccnc32)n1)c1ccc(Br)cc1` ?
*A* class 0

----------
// reported growth per item
System: MCF7 breast
Test: NCI-60 one-dose screen, 48 h (100 = growth as untreated, 0 = no growth, -100 = all killed)
Conditions: 10 µM unless noted
Compounds without any hit were thinned out: in the full panel of roughly 83,000, 20% have a hit.
// note: answer is a bare numeric in %

| mol-smiles | growth / % |
| --- | --- |
| COc1ccc2[nH]c(=O)c(/C=N/Nc3nc(-c4ccccc4)cs3)c(O)c2c1 | 67.2 |
| O=C(Nc1ccc2c(c1)OCCO2)C(=O)c1c[nH]c2ccccc12 | 18.4 |
| O=C(Nc1ccc(NCCN2CCOCC2)nc1)c1ccc([N+](=O)[O-])cc1 | 89.2 |
| COc1ccc(CCNC2=CC(=O)CCC2)cc1OC | 105 |

*Q* Which growth value belongs to `NNc1cccc(/C=C/c2ccccc2)cc1=O` ?
*A* 36.1

----------
// reported growth per item
System: OVCAR-5 ovarian
Assay: NCI-60 one-dose screen, 48 h (100 = growth as untreated, 0 = no growth, -100 = all killed)
Conditions: 10 µM unless noted
Protocol: Growth inhibition of the OVCAR-5 human tumor cell line is measured as a screen for anti-cancer activity. Cells are grown in 96 well plates and exposed to the test compound for 48 hours. Compounds are tested at a single concentration, which is 10^-5 M for most compounds. The reported endpoint is percent growth (GI% or GIPRCNT), where numbers from 0 - 100% represent growth inhibition, and numbers from -100% - 0 represent cell death. For example, a value of 40 represents 60% growth inhibition. […]
This is part of a sample that, as a whole, favours compounds with a hit. Of some 83,000 tested, about 20% had one in any assay.
// note: answer is a bare numeric in %

Past entries and their recorded results:
| compound | readout-value |
| --- | --- |
| COc1ccc(C2C=C(c3ccc(Cl)cc3)N=C3SC=C(C)N32)c(Br)c1 (configuration not stated) | 67 |
| CCN(CC)CCOc1ccc(/C(=C(/C)c2ccccc2)c2ccc(OC(C)=O)cc2)cc1 | 98.2 |
| O=C(Nc1ccncc1)C(=O)c1cn(S(=O)(=O)c2ccccc2F)c2ccccc12 | 69.3 |
| O=[N+]([O-])c1ccc(C(c2ccccc2)c2ccccc2)cc1 | 96.6 |
| O=C(NNC(=O)N1c2ccccc2C=Cc2ccccc21)c1ccccc1 | 103 |

*Q* Which growth value belongs to `COc1ccc(S(=O)(=O)n2cc(C(=O)C(=O)Nc3ccncc3)c3ccccc32)cc1F` ?
*A* 81.1

*Q* What would you report for `FC(F)(F)c1cccc(-c2cn3c(ccc4ccccc43)n2)c1` ?
*A* 102

*Q* What would you report for `O=C1/C(=C/c2ccccc2)Oc2ccc(O)c(I)c21` ?
*A* 108

*Q* What would you report for CCCCCCCCCCCCCCCCCCNC(=O)[C@H]1CSC(c2cccs2)N1 (some centres not stated) ?
*A* -54.1
